Test system: Staphylococcus aureus
experiment_summary: In vitro antibacterial activity against Staphylococcus aureus A5177
Assay type: functional
MIC values by entry

1. CCn1cc(C(=O)O)c(=O)c2cc(F)c(-c3coc(C)n3)cc21: 3.1 µg/mL
2. CCn1cc(C(=O)O)c(=O)c2cc(F)c(-c3coc(N)n3)cc21: 25 µg/mL
3. CCn1cc(C(=O)O)c(=O)c2cc(F)c(C3=NC(C)(C)CO3)cc21: 25 µg/mL
4. CCn1cc(C(=O)O)c(=O)c2cc(F)c(-c3c[nH]cn3)cc21.Cl: 25 µg/mL
5. CCn1cc(C(=O)O)c(=O)c2cc(F)c(C3=NCCCO3)cc21: > 100 µg/mL
6. CCn1cc(C(=O)O)c(=O)c2cc(F)c(C3=NCCO3)cc21: 25 µg/mL
7. CCn1cc(C(=O)O)c(=O)c2cc(F)c(C(=O)O)cc21: > 100 µg/mL
8. O=C(O)c1cn(C2CC2)c2cc(N3CCNCC3)c(F)cc2c1=O: 0.39 µg/mL

Value lookup for MIC; key = CCn1cc(C(=O)O)c(=O)c2cc(F)c(C(=O)NCCO)cc21 > 100 µg/mL

// returns reported MIC for input CCn1cc(C(=O)O)c(=O)c2cc(F)c(-c3cocn3)cc21 12.5 µg/mL

What value of MIC has been recorded for this entry: CCn1cc(C(=O)O)c(=O)c2cc(F)c(-c3ccc(C)o3)cc21 1.56 µg/mL

---

Tested on: Staphylococcus epidermidis
experiment_summary: In vitro antibacterial activity against Staphylococcus epidermidis 3519
Assay type: functional
Collected MIC values appear next to each entry.
Give the quantity in µg/mL, number only.

1. CCn1cc(C(=O)O)c(=O)c2cc(F)c(-c3coc(C)n3)cc21: 3.1

# query: MIC of entry CCn1cc(C(=O)O)c(=O)c2cc(F)c(-c3cocn3)cc21 12.5

Return reported MIC; argument: CCn1cc(C(=O)O)c(=O)c2cc(F)c(-c3coc(N)n3)cc21 50

Quick check: MIC of CCn1cc(C(=O)O)c(=O)c2cc(F)c(C3=NCCO3)cc21 ? 50

---

Documented MIC across a set of molecules
Tested on: Pseudomonas aeruginosa
experiment_summary: In vitro antibacterial activity against Pseudomonas aeruginosa 5007
Assay type: functional

Guide cases for MIC, answers given:
1) CCn1cc(C(=O)O)c(=O)c2cc(F)c(C(=O)NCCO)cc21: > 100 µg/mL
2) CCn1cc(C(=O)O)c(=O)c2cc(F)c(-c3coc(N)n3)cc21: > 100 µg/mL
3) CCn1cc(C(=O)O)c(=O)c2cc(F)c(C3=NCCO3)cc21: > 100 µg/mL

Fill in: MIC of CCn1cc(C(=O)O)c(=O)c2cc(F)c(-c3coc(C)n3)cc21 is ___ 50 µg/mL

What does the data say about its MIC? Entry: CCn1cc(C(=O)O)c(=O)c2cc(F)c(C3=NCCCO3)cc21 > 100 µg/mL

// MIC lookup, key: CCn1cc(C(=O)O)c(=O)c2cc(F)c(C(=O)O)cc21 > 100 µg/mL

Form field: reported MIC of O=C(O)c1cn(C2CC2)c2cc(N3CCNCC3)c(F)cc2c1=O 0.2 µg/mL

Which MIC reading was recorded for the molecule CCn1cc(C(=O)O)c(=O)c2cc(F)c(C3=NC(C)(C)CO3)cc21 ? > 100 µg/mL

Find the recorded MIC belonging to CCn1cc(C(=O)O)c(=O)c2cc(F)c(-c3cocn3)cc21 and report it. > 100 µg/mL

What value of MIC has been reported for the following molecule? CCn1cc(C(=O)O)c(=O)c2cc(F)c(-c3ccc(C)o3)cc21 > 100 µg/mL

Entry under review: CCn1cc(C(=O)O)c(=O)c2cc(F)c(-c3c[nH]cn3)cc21.Cl . Reported MIC? > 100 µg/mL

# credit: ChEMBL document CHEMBL1125111
